ASSAY_METHOD_TEXT: chemical genetic growth profiling, strain panel (AID 1159580);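 note: tested at 20 µM; growth read once vehicle control cultures reached saturation at 30 °C; 1 = growth at the plate median or of vehicle wells; lower values mean less growth of the strain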
PROTOCOL_CONDITIONS: S. cerevisiae deletion strains, growth OD, locus YFR019W, strain FAB1
In all, about 5,500 compounds went through this assay and about 2,000 (36%) were called active. Roughly 18% stayed inconclusive and do not appear here. Cut-off read from the data, not from the text of the source: active = normalized growth mostly below about 0.91 (no sharp cut-off); inconclusive = no clear call, values can overlap the other calls; inactive = mostly above about 0.92. The list shows a part of the results.
Respond using exactly one of the listed classes: class 1 = active, class 0 = inactive

1. CC(C)Cc1ccc(C(C)C(=O)Nc2nn(C)c3ccccc23)cc1 (stereo not given)    class 0
2. Cc1oc(C(C)(C)C)cc1-c1cc(N)n(-c2ccc(I)cc2)n1    class 0
3. Cc1ccc(S(=O)(=O)n2c(Sc3ccc([N+](=O)[O-])cc3[N+](=O)[O-])nc3cc(C)ccc32)cc1    class 0

Given Cc1nc(-c2ccccn2)[nH]c(=O)c1Cc1c(Cl)cccc1Cl , state the outcome it received in this test.
class 0

Also, Brc1ccc2[nH]c3c(c2c1)CCC3 please.
class 1
